- protocol.text: NCI Yeast Anticancer Drug Screen. Data for the rad50 strain (AID 155);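 also: 0% = growth of vehicle-only cultures of the same strain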
- condition.description: S. cerevisiae rad50 strain growth inhibition; at 1.2 µM; stronger effect = higher value
Compounds without any hit were thinned out: in the full panel of roughly 79,000, 15% have a hit.
Could you please report measured growth inhibition for the items listed next?
Express the result in % but write the number alone.

Inquiry: Recorded growth inhibition of O=S(=O)(O)c1ccc2c(N=Nc3c(O)ccc4ccccc34)cccc2c1 , please.
Reply text: 4

Inquiry: Recorded growth inhibition of O=C(Cc1ccccc1)c1ccc(O)cc1 , please.
Reply text: -15

Inquiry: Recorded growth inhibition of Cc1ccc(Nc2n[nH]c(=S)s2)cc1C , please.
Reply text: 14

Inquiry: Recorded growth inhibition of O=C1C=CC(=O)N1c1ccc(Br)cc1Cl , please.
Reply text: 99

Inquiry: Recorded growth inhibition of COc1cc(NCCCCCNC(C)C)c2ncccc2c1Cl , please.
Reply text: -1

Inquiry: Recorded growth inhibition of [O-]c1c2cc(-[n+]3c(-c4ccccc4)cc(-c4ccccc4)cc3-c3ccccc3)cc1COCCOCCOCCOCCOC2 , please.
Reply text: 1

Inquiry: Recorded growth inhibition of CCCCCCCCCCCCCCCCOCC(Cl)COP(=O)(O)OP(=O)(O)OCC1OC(n2cnc3c(N)ncnc32)C(O)C1O (configuration not stated) , please.
Reply text: 14

Inquiry: Recorded growth inhibition of CCN(CC)c1cccc(Nc2nc3ccccc3s2)c1 , please.
Reply text: 8

Inquiry: Recorded growth inhibition of O=[N+]([O-])c1ccc2nnnn2c1 , please.
Reply text: -3

Inquiry: Recorded growth inhibition of Nc1c([N+](=O)[O-])cc2c3c(cccc13)CC2 , please.
Reply text: 28

Inquiry: Recorded growth inhibition of COc1ccc(CCN2C(=O)C=CC2=O)cc1OC , please.
Reply text: 4

Inquiry: Recorded growth inhibition of C=Cc1c(C)c(O)cc2c1-c1ccc(O)c(C)c1CC2 , please.
Reply text: -20

Inquiry: Recorded growth inhibition of O=C(Nc1ccn(C2CC(O)C(COC(c3ccccc3)(c3ccccc3)c3ccccc3)O2)c(=O)n1)c1ccccc1 (configuration not stated) , please.
Reply text: -44

Inquiry: Recorded growth inhibition of Cc1c2ccncc2c(C)c2c1oc1ccccc12 , please.
Reply text: 53

Inquiry: Recorded growth inhibition of c1ccc(N/N=C2\CC(c3ccccc3)Oc3ccccc32)cc1 (configuration not stated) , please.
Reply text: 4

Inquiry: Recorded growth inhibition of BrC/C=C/C[P+](c1ccccc1)(c1ccccc1)c1ccccc1 , please.
Reply text: 7

Inquiry: Recorded growth inhibition of CC(=O)CC[N+](C)(C)C , please.
Reply text: -14

Inquiry: Recorded growth inhibition of CN(C)CCNC(=O)c1cccc2nc3c4ccccc4c4ccccc4c3nc12 , please.
Reply text: -9

Inquiry: Recorded growth inhibition of Clc1ccc(C(c2ccc(Cl)cc2)N2CCNCC2)cc1 , please.
Reply text: -3

Inquiry: Recorded growth inhibition of O=C(/C(=C/c1ccccc1)CBr)c1ccccc1 , please.
Reply text: 4

Inquiry: Recorded growth inhibition of CCOC(=O)c1[nH]c2cccc3c2c1CC(Br)C3=O (configuration not stated) , please.
Reply text: -15

Inquiry: Recorded growth inhibition of CCCCOc1ccc(Nc2c3ccccc3nc3ccccc23)cc1 , please.
Reply text: 41

Inquiry: Recorded growth inhibition of COc1ccc2nc3cccc([N+](=O)[O-])c3c(NCCCO)c2c1 , please.
Reply text: 87

Inquiry: Recorded growth inhibition of NCC(O)CSCc1ccc(Cl)cc1 (configuration not stated) , please.
Reply text: -2

Inquiry: Recorded growth inhibition of O=c1[nH]cc(F)c(=O)[nH]1 , please.
Reply text: 2

Inquiry: Recorded growth inhibition of CCCCCC/C(C)=N/Nc1ccc([N+](=O)[O-])cc1[N+](=O)[O-] , please.
Reply text: -18

Inquiry: Recorded growth inhibition of CC1=NN(C(=O)CC(=O)N(C(=O)c2ccccc2)c2ccc(Cl)cc2)C(=O)C1N=Nc1ccc([N+](=O)[O-])cc1 (configuration not stated) , please.
Reply text: -3

Inquiry: Recorded growth inhibition of O=C(Cc1ccccc1F)NC1=C(Cl)C(=O)c2ccccc2C1=O , please.
Reply text: 20

Inquiry: Recorded growth inhibition of OC(c1ccc(Br)cc1)(c1cccs1)C1CC1 (configuration not stated) , please.
Reply text: 3

Inquiry: Recorded growth inhibition of CCOc1ccc2ccc3cccnc3c2n1 , please.
Reply text: -5

Inquiry: Recorded growth inhibition of Oc1ccc(Cc2nccc3cc(O)c(O)cc23)cc1O , please.
Reply text: 3

Inquiry: Recorded growth inhibition of Cc1cc(NCCCN(C)C)c2ccc3c(ccc4c(NCCCN(C)C)cc(C)nc43)c2n1 , please.
Reply text: 21

Inquiry: Recorded growth inhibition of CCC1SC(=S)N(c2ccc(Cl)cc2)C1=O (configuration not stated) , please.
Reply text: -17

Inquiry: Recorded growth inhibition of O=C1c2ccccc2C2CCC1c1ccccc12 (configuration not stated) , please.
Reply text: -19

Inquiry: Recorded growth inhibition of CC[C@]1(O)C[C@H]2CN(CCc3c([nH]c4ccccc34)[C@@](C(=O)OC)(c3cc4c(cc3OC)N(C)[C@H]3[C@@](O)(C(=O)OC)[C@H](OC(C)=O)[C@]5(CC)C=CCN6CC[C@]43[C@@H]65)C2)C1 , please.
Reply text: -2

Inquiry: Recorded growth inhibition of O=C1C=CC(=Nc2ccc3c(c2)Cc2cc(Cl)ccc2-3)O1 , please.
Reply text: -1

Inquiry: Recorded growth inhibition of CCOC(=O)C1=C(C)NC(C)=C(C(=O)OCC)C1c1ccc(Cl)cc1 , please.
Reply text: 14

Inquiry: Recorded growth inhibition of CCC(C)/C(C)=N/NC(N)=O (configuration not stated) , please.
Reply text: 2

Inquiry: Recorded growth inhibition of COc1ccc2nc(N/N=C/c3sccc3C)cc(C)c2c1 , please.
Reply text: -22

Inquiry: Recorded growth inhibition of COC1=C(N=[N+]=[N-])C(=O)c2ncccc2C1=O , please.
Reply text: 56

Inquiry: Recorded growth inhibition of Oc1ccc(Br)cc1C=Nc1cccc(C(F)(F)F)c1 , please.
Reply text: -28

Inquiry: Recorded growth inhibition of C[Si](C)(C)Cc1ccccc1C(=O)O , please.
Reply text: 4

Inquiry: Recorded growth inhibition of CC1=Cc2ccc(C)cc2C(=O)C1=O , please.
Reply text: 3

Inquiry: Recorded growth inhibition of O=c1oc(C(C(F)(F)F)C(F)(F)F)nc2ccccc12 , please.
Reply text: 33

Inquiry: Recorded growth inhibition of O=C1OC(c2ccc(Cl)cc2)Sc2ccccc21 (configuration not stated) , please.
Reply text: 7

Inquiry: Recorded growth inhibition of N#C/C(=C1C=C/C(=N\O)C(Cl)=C\1)c1ccccc1 , please.
Reply text: 0

Inquiry: Recorded growth inhibition of Cc1cnccc1N=Nc1ccc(N(C)C)cc1 , please.
Reply text: -4
